# System: SNB-19 CNS
# Assay Details: NCI-60 one-dose screen, 48 h
# Test Conditions: 10 µM unless noted
About 83,000 compounds went through this panel and 20% of them were active in at least one assay; those are over-represented in the sample as a whole. Calls of active or inactive are those of the source. The calls were made as follows: active = growth percent below 10; inactive = the rest.
// allowed return values: yes (1) = active, no (0) = inactive

Examples from the recorded data:
Compound	Class Label
COc1ccc(Nc2cc(C)nc(NCc3ccccc3)n2)cc1	no (0)
O=c1cc(-c2ccccc2)oc2cc(OCc3cn(Cc4ccc(F)cc4)nn3)cc(OCc3cn(Cc4ccc(F)cc4)nn3)c12	no (0)
COc1ccc(CCN2C(=O)/C(=C/c3ccc(C4Oc5ccccc5C5CC(c6cccc(OC)c6)=NN54)cc3)SC2=S)cc1 (stereo not drawn)	no (0)

Could you kindly confirm the outcome this assay logged for CC(C)Cn1c2c(c(=S)[nH]c1=O)CCC2 ?
no (0)

Could you kindly confirm the outcome this assay logged for COc1ccc(Cn2c(Br)c3c(c2Br)-c2nc(N)sc2CC3)cc1 ?
no (0)

Called result for Cn1nc(C(C)(C)C)cc1NC(=O)Cc1ccc(/C=C2\C(=O)Nc3ccccc32)cc1
no (0)

Which result was noted for this compound in the test: NCCOc1ncccc1/C=C1\c2ccccc2-c2ccc([N+](=O)[O-])cc21
yes (1)

Please share the test call associated with CC(C)[C@H](NC(=O)Cn1cc(C(=O)O)nn1)C(=O)O .
no (0)

What outcome does the record of this test show for COc1ccc(OC)c(/C=C/C(=O)c2c(C)nc3ccccc3c2/C=C/c2ccccc2)c1 ?
no (0)

Assay outcome for O=C(Nc1ccc(F)cc1F)c1cc(Br)ccc1O : what was it?
no (0)

Test call, this compound: O=c1oc2ccc(F)cc2c(=O)n1-c1ccc(Cl)cc1F
no (0)

Any idea what this test logged for O=C1/C=C/[C@@H](O)[C@@H]2C[C@@H](O)C[C@H]2/C=C/CCCCO1 ?
no (0)

----------
# System: SK-MEL-28 melanoma
# Assay Details: NCI-60 one-dose screen, 48 h (100 = growth as untreated, 0 = no growth, -100 = all killed)
# Test Conditions: 10 µM
The panel holds about 83,000 compounds, 20% with a hit somewhere; the sample as a whole holds those more often.
Endpoint: growth (%)
Hi! Could you send only the number? It should be in %, unit omitted.

Compound	growth [%]
Cc1ccc(CN2CCC(C(=O)Nc3ccc(-c4cc5ccccc5[nH]4)cc3)CC2)o1	85.1
Cc1cc2c(c(C)c1Cl)C(=O)/C(=C/c1ccco1)O2	107
COc1cc(C2C(C#N)=C(N)OC3=C2C(=O)c2ccccc2C3=O)cc(OC)c1OC (stereo unspecified)	58.1

Tell me the measured growth of O=C(O)CCC(=O)c1ccc(C2CCCCCC2)cc1 , please.
113

Bench note: what growth did Cc1cc(Br)c(N)c(Br)c1 show?
101

Using the record for OC(CNC1CCCCC1)Cn1c2ccc(I)cc2c2cc(I)ccc21 (stereo unspecified) , report its growth.
81.3

# query: growth of entry CCOc1ccc2c(c1)CN(Cc1ccc(Cl)cc1)CO2
41.9

// query growth value for entry O=C(N/N=C/c1ccccc1Cl)C(=O)Nc1cccc(C(F)(F)F)c1
113

growth for O=c1oc2ccc(F)cc2c(=O)n1-c1ccc(Cl)cc1F ?
14.7

What does the data say about its growth? Entry: O=C1/C=C/[C@@H](O)[C@@H]2C[C@@H](O)C[C@H]2/C=C/CCCCO1
-8.98

// lookup growth for COC(=O)/C(=C\c1c(-c2ccccc2)[nH]c2ccccc12)S(C)(=O)=O
36.1

Which growth value belongs to CCN1C(=O)N(CC)C2C1NN=c1s/c(=C3\C(=O)N(C(C)C)c4ccccc43)c(=O)n12 (stereo unspecified) ?
57.4

Requested field: growth. Item: O=C(Nc1ccccc1O)c1ccc(-c2ccc(Cl)cc2Cl)o1
98.6
